Origin of measurements: BigSolDB 2.1

details: in formic acid, 315.75 K
Property label: solubility (mole fraction)

>>> df
                                   compound              property_label  numeric_value
0  OC1OC[C@@H](O)[C@H](O)[C@H]1O (stereo partly specified)  solubility (mole fraction)            0.2

====

details: in formic acid, 305.15 K
Property label: solubility (mole fraction)

>>> df
                                   molecule  result
0  OC1OC[C@@H](O)[C@H](O)[C@H]1O (stereo partly specified)   0.154

====

conditions: in formic acid, 320.35 K
Property label: solubility (mole fraction)

In [3]: df
Out[3]:
                                   compound  numeric_value
0  OC1OC[C@@H](O)[C@H](O)[C@H]1O (stereo partly specified)          0.223
